Target: Ceramide glucosyltransferase (Homo sapiens) (UniProt Q16739)
Sequence (whole entry): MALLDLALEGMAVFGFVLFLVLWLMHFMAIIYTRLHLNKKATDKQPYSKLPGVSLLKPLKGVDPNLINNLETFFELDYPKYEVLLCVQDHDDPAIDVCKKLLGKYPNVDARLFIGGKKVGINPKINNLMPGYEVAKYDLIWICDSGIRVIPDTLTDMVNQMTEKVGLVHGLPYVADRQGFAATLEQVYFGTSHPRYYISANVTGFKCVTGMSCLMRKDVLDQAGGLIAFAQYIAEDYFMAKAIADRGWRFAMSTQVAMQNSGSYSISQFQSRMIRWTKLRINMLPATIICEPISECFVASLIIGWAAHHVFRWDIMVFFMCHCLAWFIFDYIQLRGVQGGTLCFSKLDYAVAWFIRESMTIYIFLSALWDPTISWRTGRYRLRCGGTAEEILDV
Test: Inhibition of glucosylceramide synthase in human A549 cells at 250 uM after 15 mins
Assay type: cell-based
Active and inactive are the calls of the source. The rule behind the calls is not given here.
property-name: inhibition

Known inhibition results, listed for orientation:
- CCCCCCCCCO[C@@H]1[C@H](O)[C@@H](O)[C@H](O)[C@@H](O)[C@@H]1OCCCCCCCCC: inactive
- CCCCCCCCCN[C@@H]1[C@H](N)[C@H](O)[C@@H](O)[C@H](O)[C@H]1O.Cl.Cl: inactive
- CCCCCCCCCN[C@@H]1[C@H](O)[C@@H](O)[C@H](O)[C@@H](O)[C@@H]1NCCCCCCCCC.Cl.Cl: 73%
- CCCCCCCCCN1C(=O)N(CCCCCCCCC)[C@H]2[C@H](O)[C@@H](O)[C@H](O)[C@@H](O)[C@H]21: inactive

Bench note, Ceramide glucosyltransferase (Homo sapiens) (UniProt Q16739): entry Cl.Cl.N[C@@H]1[C@H](N)[C@H](O)[C@@H](O)[C@H](O)[C@H]1O , its inhibition = inactive
